Below: compounds with pIC50 recorded for Substance-P receptor (Homo sapiens, UniProt P25103) in separate published works.
Quick note: pIC50 values are minus log10 of concentrations in mol/L.

Prompt: Look at this compound and give its reported pIC50. O=C(Cc1cc(C(F)(F)F)cc(C(F)(F)F)c1)NCC(Cc1ccccc1)N1CCC(N2CCCCC2)CC1 (stereo unspecified)
Response: 7.09

Prompt: Look at this compound and give its reported pIC50. CCNC(=O)N1CC[C@H](NCc2cc(-n3nnnc3C(F)(F)F)ccc2OCC)[C@H](c2ccccc2)C1 (racemic)
Response: 10.07

Prompt: Look at this compound and give its reported pIC50. N[C@H](COCc1cc(Cl)cc(Cl)c1)c1ccccc1
Response: 7.31

Prompt: Look at this compound and give its reported pIC50. CN(CC(N)=O)[C@H]1CC[C@H](OCc2cc(C(F)(F)F)cc(C(F)(F)F)c2)[C@@H]1c1ccccc1 (racemic)
Response: 8.68

Prompt: Look at this compound and give its reported pIC50. O=C(Cc1cc(C(F)(F)F)cc(C(F)(F)F)c1)NCC(c1cccc2ccccc12)N1CCC(N2CCCCC2)CC1 (stereo unspecified)
Response: 7.85

Prompt: Look at this compound and give its reported pIC50. COC(=O)N(C)[C@@H]1CC[C@H](OCc2cc(C(F)(F)F)cc(C(F)(F)F)c2)[C@H]1c1ccccc1 (racemic)
Response: 8.21

Prompt: Look at this compound and give its reported pIC50. OC[C@@H]1CC[C@H](OCc2cc(C(F)(F)F)cc(C(F)(F)F)c2)[C@H]1c1ccccc1 (racemic)
Response: 9.11

Prompt: Look at this compound and give its reported pIC50. C[C@@H](O[C@@H]1CN(C(=O)[C@@H]2COC(=O)N2)C[C@H]1c1ccc(F)cc1)c1cc(C(F)(F)F)cc(C(F)(F)F)c1
Response: 9.47

Prompt: Look at this compound and give its reported pIC50. CCNC(=O)N1CC[C@H](NCc2cc(-n3nnnc3C(F)(F)F)cc3c2OCC3)[C@H](c2ccccc2)C1 (racemic)
Response: 10.03

Prompt: Look at this compound and give its reported pIC50. O=C(Cc1cc(C(F)(F)F)cc(C(F)(F)F)c1)NCC(C(c1ccccc1)c1ccccc1)N1CCC(N2CCCCC2)CC1 (stereo unspecified)
Response: 6.89

Prompt: Look at this compound and give its reported pIC50. CC(C)N1CCN(C(CNC(=O)Cc2cc(C(F)(F)F)cc(C(F)(F)F)c2)c2cccc3c2OCO3)CC1 (stereo unspecified)
Response: 8.16

Prompt: Look at this compound and give its reported pIC50. N[C@@H]1CC[C@@](COCc2cc(C(F)(F)F)cc(C(F)(F)F)c2)(c2ccccc2)C1
Response: 7.96

Prompt: Look at this compound and give its reported pIC50. NC(=O)[C@@H]1CC[C@H](OCc2cc(C(F)(F)F)cc(C(F)(F)F)c2)[C@H]1c1ccccc1 (racemic)
Response: 8.14

Prompt: Look at this compound and give its reported pIC50. CN(CC(c1cccc(C(F)(F)F)c1F)N1CCC(N2CCCCC2)CC1)C(=O)Cc1cc(C(F)(F)F)cc(C(F)(F)F)c1 (stereo unspecified)
Response: 8.85

Prompt: Look at this compound and give its reported pIC50. O=C(N[C@@H](Cc1c[nH]c2ccccc12)C(=O)OCc1cccc(Cl)c1)c1ccccc1
Response: 5.98

Prompt: Look at this compound and give its reported pIC50. O=C(N[C@@H]1CC[C@H](OCc2cc(C(F)(F)F)cc(C(F)(F)F)c2)[C@H]1c1ccccc1)OCc1ccccc1 (racemic)
Response: 7.40
